Recorded values, source the supplement of paper PMC12042874.

- testMethodNotes: amyloid nucleation score (Sup35N fusion, yeast selection) (log enrichment); library NNK2; higher = more nucleation; inactive = no reads after selection;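 also: zero at mode of non-aggregating sequences after 7 days selection at 30°C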
metric: amyloid nucleation score

primarySequence	metric	measValue
VLSYSVFTLRLATKIVP	amyloid nucleation score	-0.337
ECSGEHASVQVSTGLGTDVQ	amyloid nucleation score	2.8
KRDLGFRVVLWYLW	amyloid nucleation score	-0.942
NLMVVRRSDHSRPGNCHWQA	amyloid nucleation score	0.381
FAGNAHGRRTG	amyloid nucleation score	1.3
PLAVGRCGGIAYSVWCTVNL	amyloid nucleation score	5.15
YCHPFVRHRLKLCTDACY	amyloid nucleation score	-0.174
FKLFSFQVLYCSFDPCMHYT	amyloid nucleation score	-1.33
QVGKQADFRVAWLRVIHVF	amyloid nucleation score	0.292
NVPLFRSVSGDPVHHPLI	amyloid nucleation score	2.41
LCYPCRACPGTKNALADRLG	amyloid nucleation score	3.56
